Test: Cellular viability qHTS for adrenocortical cancer (ACC) cell line SW-13 (AID 1963989); further: potency means the concentration at half of the fitted maximal effect; nearly all actives have a fitted effect of over 65% in size
Settings: SW-13 ACC cells viability, CellTiter-Glo, 48 h
Results filed as inconclusive are left out. Activity calls are given as the source filed them. The call rests on the fitted dose curve; in most records, active means well fitted cell-killing curve with a large enough effect; inconclusive means small, poorly fitted or top-dose-only effect; inactive means flat fitted curve, though single readings scatter.
Quantity kind: Potency

Below, each entry is followed by its recorded Potency result.
# Molecule, Quantity kind, Recorded value
measured = [
    ("Clc1cc(Cl)cc(CNc2ncncc2-c2ccc3c(c2)OCO3)c1", "Potency", "10 µM (active)"),
    ("COc1c(Nc2ncc(Cl)c(N[C@H]3[C@H](C(N)=O)[C@@H]4C=C[C@@H]3C4)n2)ccc2c1CCC(N1CCOCC1)CC2 (some centres undefined)", "Potency", "15.8 µM (active)"),
    ("COC(=O)Nc1nc2ccc(C(=O)C3CC3)cc2[nH]1", "Potency", "0.731 µM (active)"),
    ("OC(c1cc(C(F)(F)F)nc2c(C(F)(F)F)cccc12)C1CCCCN1 (centres undefined)", "Potency", "22.4 µM (active)"),
    ("c1ccc(Cn2c(-c3ccc(OCC(C4CCNCC4)n4c(-c5ccccc5)nc5ccccc54)cc3)nc3ccccc32)cc1 (centres undefined)", "Potency", "25.1 µM (active)"),
    ("C[C@H]1O[C@@H](O[C@H]2[C@@H](O)C[C@H](O[C@H]3[C@@H](O)C[C@H](O[C@H]4CC[C@@]5(C)[C@H](CC[C@@H]6[C@@H]5C[C@@H](O)[C@]5(C)[C@@H](C7=CC(=O)OC7)CC[C@]65O)C4)O[C@@H]3C)O[C@@H]2C)C[C@H](O)[C@@H]1O", "Potency", "0.0708 µM (active)"),
]

Memo: `Cn1cc(-c2cc(Oc3cc(F)c(NC(=O)C4(C(=O)Nc5ccccc5)CC4)cc3F)ccn2)cn1` , reported Potency: 25.1 µM (active)

Memo: `CCCC1(CCC)CCC2(CCN(CCCN(CC)CC)C2)CC1` , reported Potency: 3.55 µM (active)

Memo: COc1cccc2c1CCCC2CCCN1CCN(C2CCCCC2)CC1 (centres undefined) , reported Potency: 22.4 µM (active)

Memo: `O=C(Nc1cccnc1)N1CCC(Cc2cccc(Oc3ccc(C(F)(F)F)cn3)c2)CC1` , reported Potency: 15.8 µM (active)

Memo: `Oc1c(Br)cc(Br)c2cccnc12` , reported Potency: 4.61 µM (active)

###

Experiment: Quantitative highthroughput screen to assess conditional lethalithy of NOMO1 cells grown in RPMI1640 with untreated serum (RPMI+s) (AID 1963876); further: nearly all actives have a fitted effect of over 35% in size; further: potency means the concentration at half of the fitted maximal effect
Settings: NOMO1 AML cells in RPMI+serum, CellTiter-Glo viability, 48 h; series mostly up to 45.8 µM
Records with an inconclusive call do not appear. Calls of active or inactive are those of the source. Calls come from the whole dose curve; as a rule, active = well fitted cell-killing curve with a large enough effect; inconclusive = small, poorly fitted or top-dose-only effect; inactive = flat fitted curve, though single readings scatter. Peptide text beside a SMILES is read from it. * marks the point of attachment. Cbz = O=C(OCc1ccccc1)*
Quantity kind: Potency

# Molecule, Potency
rows = [
    ("CN(C)N=Nc1nc[nH]c1C(N)=O", "inactive"),
    ("Cc1c(C(=O)Nc2ccc(N3C[C@@H](C)O[C@@H](C)C3)nc2)cccc1-c1ccc(OC(F)(F)F)cc1", "5.26 µM (active)"),
    ("CCN(C(=O)c1c(O)c2c(Cl)cccc2n(C)c1=O)c1ccccc1", "1.66 µM (active)"),
    ("CC(=O)N(C)C1(c2ccccc2)CCN(CCC[C@]2(c3ccc(Cl)c(Cl)c3)CCCN(C(=O)c3ccccc3)C2)CC1", "1.87 µM (active)"),
    ("CC(C)OC(=O)C1=CN(C(=O)c2ccc(F)c(F)c2)CC(C)(C)c2c1[nH]c1ccccc21", "inactive"),
]

We now examine a further molecule.
Memo: CC(C)C[C@@H](C=O)NC(=O)[C@H](CC(C)C)NC(=O)[C@H](CC(C)C)NC(=O)OCc1ccccc1 (Cbz-Leu-Leu-Leu-aldehyde) , reported Potency: 0.743 µM (active)
